Assay: Caco-2 bidirectional (ABBA) permeability assay
Assay type: in vitro ADME
Settings: human; Papp(B-A)/Papp(A-B), Caco-2

{"Compound": "O=c1[nH]ncc(NCC#Cc2ccccc2C(F)(F)F)c1C(F)(F)F [I-A-1]", "efflux ratio at 2 h, 5 µM": 0.52}

---

List of IC50 tested on PARP7 enzyme (Homo sapiens).
Sequence (Q7Z3E1 whole entry): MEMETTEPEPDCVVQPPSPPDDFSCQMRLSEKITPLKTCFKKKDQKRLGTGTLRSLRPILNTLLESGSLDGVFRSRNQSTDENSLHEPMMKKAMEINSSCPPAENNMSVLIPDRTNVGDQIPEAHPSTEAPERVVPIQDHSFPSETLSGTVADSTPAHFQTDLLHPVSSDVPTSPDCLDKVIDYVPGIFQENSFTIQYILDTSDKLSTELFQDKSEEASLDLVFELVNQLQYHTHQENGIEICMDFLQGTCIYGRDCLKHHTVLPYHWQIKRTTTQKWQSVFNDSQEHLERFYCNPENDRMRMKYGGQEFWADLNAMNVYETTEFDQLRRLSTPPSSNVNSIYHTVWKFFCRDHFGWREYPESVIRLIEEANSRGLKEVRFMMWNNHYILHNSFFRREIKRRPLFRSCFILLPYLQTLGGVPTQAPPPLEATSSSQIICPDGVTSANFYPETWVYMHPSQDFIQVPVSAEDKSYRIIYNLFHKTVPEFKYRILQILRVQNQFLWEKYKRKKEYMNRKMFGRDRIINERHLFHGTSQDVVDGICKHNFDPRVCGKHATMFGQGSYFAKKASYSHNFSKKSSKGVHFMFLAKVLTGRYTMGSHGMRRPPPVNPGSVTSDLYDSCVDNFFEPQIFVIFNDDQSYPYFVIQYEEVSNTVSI
Assay Metric: IC50

{"Smi": "O=c1[nH]ncc(NCC#Cc2ccccc2C(F)(F)F)c1C(F)(F)F", "Target Or System": "PARP7 enzyme (Homo sapiens)", "Assay Metric": "IC50", "Test Value": "< 100 nM"}
{"Smi": "O=C(CCNc1cn[nH]c(=O)c1C(F)(F)F)c1ccccc1", "Target Or System": "PARP7 enzyme (Homo sapiens)", "Assay Metric": "IC50", "Test Value": "< 100 nM"}

---

Assay: Caco-2 bidirectional (ABBA) permeability assay
Assay type: in vitro ADME
Conditions: human; basal to apical, 5 µM, 2 h, Caco-2
Assay Metric: Papp B→A at 2 h, 5 µM (×10⁻⁶ cm/s)

{"Smi": "O=c1[nH]ncc(NCC#Cc2ccccc2C(F)(F)F)c1C(F)(F)F", "Measurement Unit": "×10⁻⁶ cm/s", "Test Value": 20.9}
